# assayed-target: human A2aR (Homo sapiens, UniProt P29274)
# Sequence (P29274 whole entry): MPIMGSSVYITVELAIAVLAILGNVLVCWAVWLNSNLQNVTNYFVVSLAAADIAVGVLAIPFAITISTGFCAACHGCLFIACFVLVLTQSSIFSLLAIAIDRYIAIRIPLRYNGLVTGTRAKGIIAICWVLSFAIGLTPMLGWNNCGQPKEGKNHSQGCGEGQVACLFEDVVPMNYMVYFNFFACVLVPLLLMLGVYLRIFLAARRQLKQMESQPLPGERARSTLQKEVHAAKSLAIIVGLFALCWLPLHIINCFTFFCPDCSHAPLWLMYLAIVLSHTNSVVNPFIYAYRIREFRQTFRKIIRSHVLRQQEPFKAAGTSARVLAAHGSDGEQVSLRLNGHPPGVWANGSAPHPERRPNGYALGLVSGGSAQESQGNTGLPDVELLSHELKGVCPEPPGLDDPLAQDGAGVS
# experimental-protocol: Binding of humanized anti-A2aR antibodies in transfected Expi293F cell supernatant to human A2aR on HEK293 cells (FACS, MFI)
# assay-context: supernatant with 1 μg/ml antibody; HEK293 overexpressing human A2aR; heavy chain (row) x light chain
# Method: Briefly, HEK293 cells that stably overexpress human A2aR (HEK-hA2aR OCL, BPS Bioscience, Cat. 79381) were collected from fresh culture. Cells were then resuspended in FACS buffer (1×DPBS/1% FBS) at 10^6/ml concentration. One hundred microliters (100 μl) of cells were aliquoted into each well of a 96 well plates. […] The mean fluorescence intensity (MFI) was obtained using Guava 11HT or 5HT (Luminex). Data was analyzed using Flowjo software. […]
measurement-name: MFI, binding to human A2aR on cell surface (3F6-9G5 derived)

[Q] What measured MFI, binding to human A2aR on cell surface (3F6-9G5 derived) goes with Hu3F6-H2/Hu3F6-L2: humanized anti-A2aR IgG1 FES antibody; HCVR SEQ ID NO:59, LCVR SEQ ID NO:77 (antibody, V domains shown, IgG1 FES constant regions) VH: EVQLVQSGAEVKKPGASVKVSCKTSGFAFTSYWMNWVRQAPGQGLEWMGRIDPSDSEAHYHHKFWGRVTMTVDTSTSTVYMELSSLRSEDTAVYYCLRSLYGKGDYWGHGTTVTVSS VL: DVVMTQSPLSLPVTLGQPASISCRSSQSLVHRNGNTYLEWYQQRPGQSPRRLIYKVSNRFSGVPDRFSGSGSGTDFTLKISRVEAEDVGVYYCYQGSHVPLTFGGGTKVEIK ?
[A] 146
